observation_type: melting point

Requested field: melting point. Item: CC(C)(F)CC[C@H](C[C@H](O)[C@H](Cc1ccc(Cl)c(Cl)c1)NC(=O)c1cnc2ccccc2n1)C(N)=O 206 to 207 °C

Query (molecule): CC1CC(C)CC(O)([C@H](C[C@H](O)[C@H](Cc2ccccc2)NC(=O)c2cnc3ccccc3n2)C(N)=O)C1 (stereo partly shown) ; field requested: melting point 234 to 236 °C

# get_value(readout='melting point', item= CNC(=O)[C@H](CC(C)C)C[C@H](O)[C@H](Cc1ccc(O)cc1)NC(=O)c1cnc2ccccc2c1 ) 220.5 to 222.5 °C

Requested read-out: melting point. Entry: Cc1ccccc1C[C@H](C[C@H](O)[C@H](Cc1ccccc1)NC(=O)c1cnc2ccccc2n1)C(N)=O 168 to 171 °C

If you can, please state the reported melting point value of NC(=O)[C@@H](C[C@H](O)[C@H](Cc1ccccc1)NC(=O)c1cnc2ccccc2n1)C1CCCC1 . 126 to 128 °C

Value lookup for melting point; key = O=C(N[C@@H](Cc1ccccc1)[C@@H](O)C[C@H](C(=O)NO)C1(O)C2CC3CC(C2)CC1C3)c1cnc2ccccc2n1 (stereo partly shown) 133 to 134 °C

Entry under review: CCCC1CCC(O)([C@H](C[C@H](O)[C@H](Cc2ccccc2)NC(=O)c2cnc3ccccc3n2)C(=O)NO)CC1 (stereo partly shown) . Reported melting point? 115 to 117 °C
